target: AR protein (Homo sapiens, UniProt P10275, T878A); construct: host or cells: LNCaP FGC; test: AR protein degradation in LNCaP cells (Western blot); type: cell-based; details: 10 nM, 8 hours
Sequence (P10275 whole entry T878A): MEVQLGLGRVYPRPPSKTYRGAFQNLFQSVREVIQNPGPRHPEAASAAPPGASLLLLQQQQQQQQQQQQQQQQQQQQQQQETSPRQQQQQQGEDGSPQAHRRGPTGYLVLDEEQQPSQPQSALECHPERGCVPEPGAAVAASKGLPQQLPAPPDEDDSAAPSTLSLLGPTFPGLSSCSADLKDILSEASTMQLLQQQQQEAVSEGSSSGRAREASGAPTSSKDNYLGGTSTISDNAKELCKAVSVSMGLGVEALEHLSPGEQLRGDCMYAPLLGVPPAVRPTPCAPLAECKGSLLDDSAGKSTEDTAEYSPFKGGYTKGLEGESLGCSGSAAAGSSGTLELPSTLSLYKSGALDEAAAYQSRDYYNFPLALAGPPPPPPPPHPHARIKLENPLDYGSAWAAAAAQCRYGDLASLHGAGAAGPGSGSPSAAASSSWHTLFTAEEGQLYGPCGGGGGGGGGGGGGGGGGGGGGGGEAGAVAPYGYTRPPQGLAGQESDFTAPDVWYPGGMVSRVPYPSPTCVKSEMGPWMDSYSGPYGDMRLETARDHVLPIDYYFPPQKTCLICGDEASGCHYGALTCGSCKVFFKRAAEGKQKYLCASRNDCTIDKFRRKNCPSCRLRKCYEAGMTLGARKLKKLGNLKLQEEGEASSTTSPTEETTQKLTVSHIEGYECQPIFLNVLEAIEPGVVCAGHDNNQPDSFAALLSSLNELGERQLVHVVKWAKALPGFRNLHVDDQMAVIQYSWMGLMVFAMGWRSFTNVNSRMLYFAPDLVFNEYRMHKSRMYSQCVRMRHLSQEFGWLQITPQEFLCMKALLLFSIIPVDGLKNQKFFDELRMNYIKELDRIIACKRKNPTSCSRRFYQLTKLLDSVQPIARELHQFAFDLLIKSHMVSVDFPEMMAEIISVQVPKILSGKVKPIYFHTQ
# note: boundary value 50% maps to Criterion not met; Degradation of AR protein in LNCaP cells, 10 nM (%) below it maps to Criterion met

is_below(Degradation of AR protein in LNCaP cells, 10 nM (%), 50%) for COc1cc(O[C@H]2C(C)(C)[C@H](NC(=O)c3ccc(N4CCC5(CC4)CC(N4CCC6(CCc7cc(C(=O)N[C@H]8CCC(=O)NC8=O)c(F)cc7O6)CC4)C5)cc3)C2(C)C)ccc1C#N [A-P-37] ? Criterion met

Hello, I'm reviewing records and need to know if Degradation of AR protein in LNCaP cells, 10 nM (%) of COc1cc(O[C@H]2C(C)(C)[C@H](NC(=O)c3ccc(N4CCC(CN5CCC6(CCc7cc(C(=O)N[C@H]8CCC(=O)NC8=O)c(F)cc7O6)CC5)CC4)nn3)C2(C)C)ccc1C#N [A-P-34] is below 50%. Could you check? Criterion not met

I wonder whether COc1cc(O[C@H]2C(C)(C)[C@H](NC(=O)c3ccc(N4CCC(CN5CCC6(CCc7cc(C(=O)N[C@H]8CCC(=O)NC8=O)c(F)cc7O6)CC5)CC4)nc3)C2(C)C)ccc1C#N [A-P-33] has Degradation of AR protein in LNCaP cells, 10 nM (%) below 50%. Can you tell? Criterion not met

Strictly below 50%: is that where Degradation of AR protein in LNCaP cells, 10 nM (%) of COc1cc(O[C@H]2C(C)(C)[C@H](NC(=O)c3ccc(N4CCC(CN5CCC6(CC5)COc5c6ccc6c5n(C)c(=O)n6C5CCC(=O)NC5=O)CC4)nn3)C2(C)C)ccc1C#N (relative stereo) [A-P-27] sits? Criterion met

Strictly below 50% in Degradation of AR protein in LNCaP cells, 10 nM (%)? COc1cc(O[C@H]2C(C)(C)[C@H](NC(=O)c3ccc(N4CCC(C)(CN5CCC6(CCc7cc(C(=O)N[C@H]8CCC(=O)NC8=O)c(F)cc7O6)CC5)CC4)nc3)C2(C)C)ccc1C#N [A-P-49] Criterion met

For COc1cc(O[C@H]2C(C)(C)[C@H](NC(=O)c3ccc(N4CCC5(CC4)CC(N4CCC6(CC4)COc4cc7c(cc46)n(C)c(=O)n7C4CCC(=O)NC4=O)C5)nn3)C2(C)C)ccc1C#N (relative stereo) [A-P-14] , is the recorded Degradation of AR protein in LNCaP cells, 10 nM (%) below the cut-off of 50%? Criterion met

API: query returns whether the compound falls strictly under 50% in Degradation of AR protein in LNCaP cells, 10 nM (%). Query: COc1cc(O[C@H]2C(C)(C)[C@H](NC(=O)c3ccc(N4CCC(CN5CCN6c7ccc(C(=O)N[C@H]8CCC(=O)NC8=O)cc7OC[C@@H]6C5)CC4)cc3)C2(C)C)ccc1C#N [A-P-67] Criterion not met

Hi there! Is Degradation of AR protein in LNCaP cells, 10 nM (%) for COc1cc(O[C@H]2C(C)(C)[C@H](NC(=O)c3ccc(N4CCC(CN5CCC6(CCc7cc(F)c(C(=O)N[C@H]8CCC(=O)NC8=O)cc7O6)CC5)CC4)cc3)C2(C)C)ccc1C#N [A-P-39] below 50%, do you know? Criterion met

Criterion: Degradation of AR protein in LNCaP cells, 10 nM (%) strictly below 50%. Is it met by COc1cc(O[C@H]2C(C)(C)[C@H](NC(=O)c3ccc(N4CCC(CN5CCN6c7cc(F)c(C(=O)N[C@H]8CCC(=O)NC8=O)cc7OC[C@H]6C5)CC4)cc3)C2(C)C)ccc1C#N [A-P-63] ? Criterion met

Strictly below 50% in Degradation of AR protein in LNCaP cells, 10 nM (%)? COc1cc(O[C@H]2C(C)(C)[C@H](NC(=O)c3ccc(N4CCC(F)(CN5CCC6(CCc7cc(F)c(C(=O)N[C@H]8CCC(=O)NC8=O)cc7O6)CC5)CC4)cc3)C2(C)C)ccc1C#N [A-P-41] Criterion met

Please determine if Cn1c(=O)n(C2CCC(=O)NC2=O)c2cc3c(cc21)C1(CCN(C2CC4(CCN(c5ccc(C(=O)N[C@H]6CC[C@H](Oc7ccc(C#N)c(Cl)c7)CC6)nn5)CC4)C2)CC1)CO3 (relative stereo) [A-P-12] is below 50% in terms of Degradation of AR protein in LNCaP cells, 10 nM (%). Criterion not met

Consider COc1cc(O[C@H]2C(C)(C)[C@H](NC(=O)c3ccc(N4CCC(F)(CN5CCC6(CCc7cc(C(=O)N[C@H]8CCC(=O)NC8=O)c(F)cc7O6)CC5)CC4)cc3)C2(C)C)ccc1C#N [A-P-52] . Does its Degradation of AR protein in LNCaP cells, 10 nM (%) lie strictly below 50%? Criterion met

# check: Degradation of AR protein in LNCaP cells, 10 nM (%) < 50% for COc1cc(O[C@H]2C(C)(C)[C@H](NC(=O)c3ccc(N4CCC(F)(CN5CC6(CCC7(CC6)COc6c7ccc7c6CN(C6CCC(=O)NC6=O)C7=O)C5)CC4)cc3)C2(C)C)ccc1C#N (relative stereo) [A-P-5] Criterion met

Given COc1cc2c(cc1C(=O)N[C@H]1CCC(=O)NC1=O)CCC1(CCN(CC3CCN(c4ccc(N5CCC6(CC5)C[C@H](C)N(c5ccc(C#N)c(Cl)c5)C6)cc4)CC3)CC1)O2 [A-P-54] , is recorded Degradation of AR protein in LNCaP cells, 10 nM (%) strictly lower than 50%? Criterion met

Is it true that Degradation of AR protein in LNCaP cells, 10 nM (%) reported for COc1cc(O[C@H]2C(C)(C)[C@H](NC(=O)c3ccc(N4CCC(CN5CCC6(CCc7cc(F)c(C(=O)N[C@H]8CCC(=O)NC8=O)cc7O6)CC5)(OC)CC4)cc3)C2(C)C)ccc1C#N [A-P-40] is less than 50%? Criterion met

Input CC1(CN2CCC3(CCc4cc(C(=O)N[C@H]5CCC(=O)NC5=O)c(F)cc4O3)CC2)CCN(c2ccc(C(=O)N[C@H]3C(C)(C)[C@H](Oc4ccc(C#N)c(Cl)c4)C3(C)C)cc2)CC1 [A-P-55] ; condition: Degradation of AR protein in LNCaP cells, 10 nM (%) strictly below 50%. Does it hold? Criterion met

# strict comparison: is reported Degradation of AR protein in LNCaP cells, 10 nM (%) < 50%? input = C[C@H]1CC2(CCN(c3ccc(C(=O)N4CCC(CN5CCN6c7ccc(C(=O)N[C@H]8CCC(=O)NC8=O)cc7OC[C@@H]6C5)CC4)cc3)CC2)CN1c1ccc(C#N)c(Cl)c1 [A-P-69] Criterion not met
